Value source: ChEMBL document CHEMBL1146931

// reported log10(IC50) for each item listed
# target.desc: UniProt:P35968
# Sequence (P35968 whole entry): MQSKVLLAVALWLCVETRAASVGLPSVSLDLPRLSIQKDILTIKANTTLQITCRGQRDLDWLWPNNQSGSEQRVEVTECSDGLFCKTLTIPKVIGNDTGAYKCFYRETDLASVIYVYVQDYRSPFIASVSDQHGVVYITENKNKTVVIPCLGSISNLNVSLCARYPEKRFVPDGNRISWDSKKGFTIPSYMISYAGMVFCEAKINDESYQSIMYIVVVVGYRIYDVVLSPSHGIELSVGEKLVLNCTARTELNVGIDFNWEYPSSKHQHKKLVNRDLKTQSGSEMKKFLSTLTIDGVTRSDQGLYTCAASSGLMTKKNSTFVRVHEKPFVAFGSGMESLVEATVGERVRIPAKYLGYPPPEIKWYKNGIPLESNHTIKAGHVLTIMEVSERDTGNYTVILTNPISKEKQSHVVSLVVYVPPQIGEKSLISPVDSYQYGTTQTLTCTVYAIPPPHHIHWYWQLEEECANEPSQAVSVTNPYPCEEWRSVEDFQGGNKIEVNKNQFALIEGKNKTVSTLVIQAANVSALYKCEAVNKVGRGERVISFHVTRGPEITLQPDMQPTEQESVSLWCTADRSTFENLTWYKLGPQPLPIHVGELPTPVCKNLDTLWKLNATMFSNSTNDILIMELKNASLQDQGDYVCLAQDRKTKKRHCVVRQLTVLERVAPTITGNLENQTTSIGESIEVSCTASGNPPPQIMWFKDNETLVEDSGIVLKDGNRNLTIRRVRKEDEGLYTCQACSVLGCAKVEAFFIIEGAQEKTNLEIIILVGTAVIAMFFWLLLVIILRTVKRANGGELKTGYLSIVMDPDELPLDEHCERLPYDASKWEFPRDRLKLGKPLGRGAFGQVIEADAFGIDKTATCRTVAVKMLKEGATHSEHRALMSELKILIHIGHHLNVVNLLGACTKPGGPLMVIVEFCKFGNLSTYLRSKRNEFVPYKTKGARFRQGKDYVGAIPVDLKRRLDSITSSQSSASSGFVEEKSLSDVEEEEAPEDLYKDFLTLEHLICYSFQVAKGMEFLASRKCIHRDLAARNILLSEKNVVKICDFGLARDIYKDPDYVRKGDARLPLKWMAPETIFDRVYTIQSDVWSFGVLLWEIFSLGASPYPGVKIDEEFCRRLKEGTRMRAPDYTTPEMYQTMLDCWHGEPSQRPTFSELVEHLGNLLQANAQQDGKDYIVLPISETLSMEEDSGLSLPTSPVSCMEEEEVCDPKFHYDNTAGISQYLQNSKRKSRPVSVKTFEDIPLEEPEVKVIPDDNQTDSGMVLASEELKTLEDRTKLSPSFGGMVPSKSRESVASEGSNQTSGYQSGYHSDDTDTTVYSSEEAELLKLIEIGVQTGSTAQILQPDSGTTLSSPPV
Heads up: the numbers are on a log10 scale; they represent IC50 in nM.

Please review the entries below; each comes with its answer.
chem.smiles	log10(IC50)
FC(F)(Cl)Oc1ccc(Nc2nnc(-c3ccncc3CCc3ccncc3)o2)cc1	2.34
CC(C)(C)c1ccc(Nc2nnc(-c3cccnc3CCc3ccncc3)o2)cc1	1.63
FC(F)(Cl)Oc1ccc(Nc2nnc(-c3cnccc3CCc3ccncc3)o2)cc1	2.64
Clc1ccc(Nc2nnc(-c3cccnc3CCc3ccncc3)o2)cc1Cl	1.90
c1ccc(-c2ccc(Nc3nnc(-c4cccnc4CCc4ccncc4)o3)cc2)cc1	3.42
c1cnc(CCc2ccncc2)c(-c2nnc(Nc3cnc4ccccc4c3)o2)c1	2.58
FC(F)(F)Oc1cccc(Nc2nnc(-c3cnccc3CCc3ccncc3)o2)c1	2.74
COc1ccc(Nc2nnc(-c3cccnc3CCc3ccncc3)o2)cc1OC	1.83

For `Cc1ccc(Nc2nnc(-c3cccnc3CCc3ccncc3)o2)cc1C(F)(F)F` on UniProt:P35968, measured log10(IC50) was 1.94

For `FC(F)(F)c1cccc(Nc2nnc(-c3ccncc3CCc3ccncc3)o2)c1` on UniProt:P35968, measured log10(IC50) was 2.75

For `FC(F)(F)c1ccc(Nc2nnc(-c3cccnc3CCc3ccncc3)o2)cc1` on UniProt:P35968, measured log10(IC50) was 1.76

For `FC(F)(F)c1ccc(Nc2nnc(-c3cnccc3CCc3ccncc3)o2)cc1` on UniProt:P35968, measured log10(IC50) was 2.64

====

// reported IC50 for each item listed
# target.desc: Vascular endothelial growth factor receptor 1 (Homo sapiens)
# Sequence (P17948 whole entry): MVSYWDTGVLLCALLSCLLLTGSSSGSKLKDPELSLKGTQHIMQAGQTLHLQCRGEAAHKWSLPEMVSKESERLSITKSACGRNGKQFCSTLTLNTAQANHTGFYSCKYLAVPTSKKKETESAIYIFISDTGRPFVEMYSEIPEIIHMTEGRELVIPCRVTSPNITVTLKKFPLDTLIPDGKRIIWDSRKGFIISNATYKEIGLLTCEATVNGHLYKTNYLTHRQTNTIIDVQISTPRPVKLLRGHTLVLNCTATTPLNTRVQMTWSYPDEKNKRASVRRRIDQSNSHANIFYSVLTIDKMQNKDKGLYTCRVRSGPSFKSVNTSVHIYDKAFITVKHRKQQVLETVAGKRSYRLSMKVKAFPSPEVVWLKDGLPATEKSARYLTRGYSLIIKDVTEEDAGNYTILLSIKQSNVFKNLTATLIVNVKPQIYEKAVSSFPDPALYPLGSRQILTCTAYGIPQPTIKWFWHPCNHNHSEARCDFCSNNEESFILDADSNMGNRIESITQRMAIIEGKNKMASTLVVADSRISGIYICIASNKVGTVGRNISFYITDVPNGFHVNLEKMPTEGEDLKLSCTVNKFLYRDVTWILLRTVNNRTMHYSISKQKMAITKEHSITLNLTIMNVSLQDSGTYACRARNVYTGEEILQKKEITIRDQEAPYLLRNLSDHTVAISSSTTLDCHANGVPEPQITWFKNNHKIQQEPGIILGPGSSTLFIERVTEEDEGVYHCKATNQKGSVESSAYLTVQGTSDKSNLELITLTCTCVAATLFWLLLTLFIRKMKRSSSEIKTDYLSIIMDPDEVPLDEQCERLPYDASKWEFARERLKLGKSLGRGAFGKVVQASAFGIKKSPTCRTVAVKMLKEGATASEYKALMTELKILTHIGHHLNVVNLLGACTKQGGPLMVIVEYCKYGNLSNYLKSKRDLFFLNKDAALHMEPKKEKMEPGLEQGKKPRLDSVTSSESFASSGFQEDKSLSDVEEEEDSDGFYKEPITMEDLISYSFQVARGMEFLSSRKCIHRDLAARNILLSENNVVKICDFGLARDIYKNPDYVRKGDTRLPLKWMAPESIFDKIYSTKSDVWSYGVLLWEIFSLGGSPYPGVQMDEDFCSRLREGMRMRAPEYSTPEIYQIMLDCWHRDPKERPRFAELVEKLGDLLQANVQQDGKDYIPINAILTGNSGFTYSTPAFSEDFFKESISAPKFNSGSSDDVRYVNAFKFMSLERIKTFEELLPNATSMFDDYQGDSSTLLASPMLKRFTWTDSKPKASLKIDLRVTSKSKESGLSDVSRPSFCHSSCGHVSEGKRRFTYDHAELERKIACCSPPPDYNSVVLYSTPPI
Kindly answer with a numeric value in nM, unit omitted.

Please review the entries below; each comes with its answer.
chem.smiles	IC50 [nM]
FC(F)(F)Oc1cccc(Nc2nnc(-c3ccncc3CCc3ccncc3)o2)c1	710
FC(F)(F)c1cccc(Nc2nnc(-c3cnccc3CCc3ccncc3)o2)c1	1220
FC(F)(F)c1cccc(Nc2nnc(-c3ccncc3CCc3ccncc3)o2)c1	760

For `c1cnc(CCc2ccncc2)c(-c2nnc(Nc3cnc4ccccc4c3)o2)c1` on Vascular endothelial growth factor receptor 1 (Homo sapiens), measured IC50 was 440

====

Here's a batch of compounds along with measured IC50 for UniProt P35968.

Please review the entries below; each comes with its answer.
chem.smiles	target.desc	IC50
FC(F)(F)c1cccc(Nc2nnc(-c3cccnc3CCc3ccccn3)o2)c1	UniProt P35968	> 10 µM
CC(C)(C)c1ccc(Nc2nnc(-c3cc4ccccc4nc3CCc3ccncc3)o2)cc1	UniProt P35968	> 10 µM

For `Fc1ccc(CCc2ncccc2-c2nnc(Nc3cccc(C(F)(F)F)c3)o2)cc1F` on UniProt P35968, measured IC50 was > 10 µM
